Entries and their measured abundance fitness follow.
B1: Gamma-crystallin S, residues 96 to 176; numbered along this chain, P22914 (parent)
chain: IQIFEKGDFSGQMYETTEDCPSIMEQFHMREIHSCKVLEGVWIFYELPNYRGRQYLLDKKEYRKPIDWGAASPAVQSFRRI

Variants of: B1
ASSAY METHOD TEXT: abundance fitness (aPCA) (normalised: wild type 0, dead -1); higher = more abundant; growth selection in yeast, the domain comes from the species named
PROTOCOL CONDITIONS: Homo sapiens
OUTCOME MEASURE: abundance fitness

INSERT INTO results (sequence_content, outcome_measure, observed_measurement) VALUES
  ('IQIFEKGDFSGQMYETTEDCPSIMEQFHMREIHSCKVLEGVWIFGELPNYRGRQYLLDKKEYRKPIDWGAASPAVQSFRRI', 'abundance fitness', -0.669),
  ('IQIFEKGDFSGQMYETTEDCPSIMEQFHMREIHSCKVLEGVWIFYELPNYRGRQYLLDKKEYRKPIDCGAASPAVQSFRRI', 'abundance fitness', -0.026),
  ('IQIVEKGDFSGQMYETTEDCPSIMEQFHMREIHSCKVLEGVWIFYELPNYRGRQYLLDKKEYRKPIDWGAASPAVQSFRRI', 'abundance fitness', -0.906),
  ('IQIFEKGDFSGQMYETTEDCPSIMEQFHMREIHSCKVLEGVWIFYELPNYRGRQYLLSKKEYRKPIDWGAASPAVQSFRRI', 'abundance fitness', 0.014),
  ('IQIFEKGDFSGQMYETTEDCPSIMEQFHMREIHSCKVLEGVWIFYELPNYRGRQYLLDKKEYRKPIDWGAASPAVQSFKRI', 'abundance fitness', -0.358),
  ('IQIFEKGDFSGQMYETTEDCPSIWEQFHMREIHSCKVLEGVWIFYELPNYRGRQYLLDKKEYRKPIDWGAASPAVQSFRRI', 'abundance fitness', 0.115),
  ('IQIFEKGDFSGQMYETTEDCPSIMEQFHMREIHSCKVLEGVWIFYELPNIRGRQYLLDKKEYRKPIDWGAASPAVQSFRRI', 'abundance fitness', -0.851),
  ('IQIFEKGDFSGQMYETTEDCPSIMEQFHMREIHSCKVLEGVWIFYELPNYRGRQYLLDKKEYRKGIDWGAASPAVQSFRRI', 'abundance fitness', -0.009),
  ('WQIFEKGDFSGQMYETTEDCPSIMEQFHMREIHSCKVLEGVWIFYELPNYRGRQYLLDKKEYRKPIDWGAASPAVQSFRRI', 'abundance fitness', -1.16),
  ('IQIFEKGDFSGQMYETTEDCPSIHEQFHMREIHSCKVLEGVWIFYELPNYRGRQYLLDKKEYRKPIDWGAASPAVQSFRRI', 'abundance fitness', -0.099),
  ('IQIFEKGDFSGQMYETTEDCPSIMEQFHMREIHSCKVLEGVLIFYELPNYRGRQYLLDKKEYRKPIDWGAASPAVQSFRRI', 'abundance fitness', -0.241),
  ('IQIFEKGDFSGQMYETTEDCPSIMEQFHMREIHSCKVLEGVWIFYELPNYRGRQYLLDKKEYRKPIDWGAASPAVQCFRRI', 'abundance fitness', -0.327),
  ('IQIFEKGDFSGQMYETTEDCPSIMEQFHMREIHSCYVLEGVWIFYELPNYRGRQYLLDKKEYRKPIDWGAASPAVQSFRRI', 'abundance fitness', 0.068),
  ('IQIFEKGDFSGQMYETTEDCPSIMEQFHMREIHCCKVLEGVWIFYELPNYRGRQYLLDKKEYRKPIDWGAASPAVQSFRRI', 'abundance fitness', -0.047),
  ('IQIFEKGDFSGQMYWTTEDCPSIMEQFHMREIHSCKVLEGVWIFYELPNYRGRQYLLDKKEYRKPIDWGAASPAVQSFRRI', 'abundance fitness', -0.062),
  ('IQIFEKGDFSGQMYETTEDCPSIMEQFHMREIHSCKVLEGVWIFYELPNYRGRQYLLDKKEYRKPIDWGVASPAVQSFRRI', 'abundance fitness', -0.003),
  ('IQIFEKWDFSGQMYETTEDCPSIMEQFHMREIHSCKVLEGVWIFYELPNYRGRQYLLDKKEYRKPIDWGAASPAVQSFRRI', 'abundance fitness', -0.041),
  ('IQIFEKGDFSGQMYETTEDCPSIMEQFHMREIHSCKVLEGVWIFYELPNYRGRQYLLDKKEYRKPIDWGAASPAVQSSRRI', 'abundance fitness', -0.37),
  ('IQIFEKGDFSGQMYETTEDCPSIMEQFHMREIHSCKVLEGVWIFYELPNYRGRQYLLDKKEYRKPIDWGAASPAVQSHRRI', 'abundance fitness', -0.229),
  ('IQIFEKGDFSGQMYETTEDCPSIMETFHMREIHSCKVLEGVWIFYELPNYRGRQYLLDKKEYRKPIDWGAASPAVQSFRRI', 'abundance fitness', -0.047),
  ('IQIFEKGDFSGQMYVTTEDCPSIMEQFHMREIHSCKVLEGVWIFYELPNYRGRQYLLDKKEYRKPIDWGAASPAVQSFRRI', 'abundance fitness', -0.013),
  ('IQIFEKGDFSGQMYETCEDCPSIMEQFHMREIHSCKVLEGVWIFYELPNYRGRQYLLDKKEYRKPIDWGAASPAVQSFRRI', 'abundance fitness', 0.027),
  ('IQIFLKGDFSGQMYETTEDCPSIMEQFHMREIHSCKVLEGVWIFYELPNYRGRQYLLDKKEYRKPIDWGAASPAVQSFRRI', 'abundance fitness', 0.013),
  ('IQIFEKGDYSGQMYETTEDCPSIMEQFHMREIHSCKVLEGVWIFYELPNYRGRQYLLDKKEYRKPIDWGAASPAVQSFRRI', 'abundance fitness', -0.008),
  ('IQIFEKGDFSGGMYETTEDCPSIMEQFHMREIHSCKVLEGVWIFYELPNYRGRQYLLDKKEYRKPIDWGAASPAVQSFRRI', 'abundance fitness', 0.033),
  ('IQIFEKGDFSGQMEETTEDCPSIMEQFHMREIHSCKVLEGVWIFYELPNYRGRQYLLDKKEYRKPIDWGAASPAVQSFRRI', 'abundance fitness', 0.113),
  ('IQIFEKGDFSGQMYETTEDCPMIMEQFHMREIHSCKVLEGVWIFYELPNYRGRQYLLDKKEYRKPIDWGAASPAVQSFRRI', 'abundance fitness', -0.094),
  ('IQIFEKGDFSGQMYETTEDCNSIMEQFHMREIHSCKVLEGVWIFYELPNYRGRQYLLDKKEYRKPIDWGAASPAVQSFRRI', 'abundance fitness', -0.015),
  ('IQIFEKGDFSGVMYETTEDCPSIMEQFHMREIHSCKVLEGVWIFYELPNYRGRQYLLDKKEYRKPIDWGAASPAVQSFRRI', 'abundance fitness', 0.005),
  ('ICIFEKGDFSGQMYETTEDCPSIMEQFHMREIHSCKVLEGVWIFYELPNYRGRQYLLDKKEYRKPIDWGAASPAVQSFRRI', 'abundance fitness', 0.027),
  ('ITIFEKGDFSGQMYETTEDCPSIMEQFHMREIHSCKVLEGVWIFYELPNYRGRQYLLDKKEYRKPIDWGAASPAVQSFRRI', 'abundance fitness', -0.066),
  ('IQIFEKGDFSGQMYETTEDCPSIMEQFHMREIHSCKVLEGVCIFYELPNYRGRQYLLDKKEYRKPIDWGAASPAVQSFRRI', 'abundance fitness', -0.156),
  ('IQIFEKGDFSGQMYETTEDCPSIMEQFHMREIHSCKVLEGVWIFYEWPNYRGRQYLLDKKEYRKPIDWGAASPAVQSFRRI', 'abundance fitness', -0.078),
  ('IQIFEKGDFSGQMYETTEKCPSIMEQFHMREIHSCKVLEGVWIFYELPNYRGRQYLLDKKEYRKPIDWGAASPAVQSFRRI', 'abundance fitness', -0.114),
  ('IQIFEKGDFSGQMYETTEDCPSIMEQFHMREIHSCKVLEGVWIFYELPNYRGRQYLLDKGEYRKPIDWGAASPAVQSFRRI', 'abundance fitness', 0.017),
  ('IQIFEKGDFSGQMYETTEDCPSIMEQFHMREIHSCKVLEGVWIFYELPCYRGRQYLLDKKEYRKPIDWGAASPAVQSFRRI', 'abundance fitness', -0.078),
  ('IQIFEKGDFSGQMYETTEDCPSIMEQFHMREIHSCKVLFGVWIFYELPNYRGRQYLLDKKEYRKPIDWGAASPAVQSFRRI', 'abundance fitness', -0.025),
  ('IQIFEKGDFSGQMYETTEDCPSIMEQFHMREIHSCKVLEGVWIFYELPNYRGRQYLLDKKEYRKAIDWGAASPAVQSFRRI', 'abundance fitness', 0.094);
